Measured viability, T/C accompanies every entry in the list below.
System: 252836-082-R-J2-PDC tumor spheroids, viability;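 further: spheroids exposed to agents for seven days before readout; percent of vehicle DMSO control viability so 100% = untreated growth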
Assay: Anticancer human tumor 252836-082-R-J2-PDC patient-derived head and neck squamous cell carcinoma cell line growth inhibition [PI3K]
Conditions: compound 0.316 µM; hits give low values; spheroids with HUVEC and MSC
Text: Combinatorial screen of targeted agents with the PI3K inhibitors inavolisib, alpelisib, duvelisib, and copanlisib in multi-cell type tumor spheroids A high-throughput screen of multi-cell type tumor spheroids was designed to identify active combinations of targeted small molecules and PI3K pathway inhibitors. […] Compounds. […] If the clinical Cmax for an agent had not been determined, the highest concentration tested was 10 microM. […]

Use these answered entries as a reference point.
> print(dat)
                                   compound            recorded.value
1  CC(Cn1ccc(-c2ccc(C#N)c(Cl)c2)n1)NC(=O)c1cc(C(C)O)[nH]n1 (configuration not stated)  98.8% [middle of 4 runs]
2  Cn1nccc1Nc1nccc(-c2ccn(C(CO)c3ccc(Cl)c(F)c3)c(=O)c2)n1 (configuration not stated)  96.9% [middle of 4 runs]
3  CCN1CCN(Cc2ccc(Nc3ncc(F)c(-c4cc(F)c5nc(C)n(C(C)C)c5c4)n3)nc2)CC1  91.5% [middle of 4 runs]

Just so you know, measured viability, T/C for `COc1c(OCCCN2CCOCC2)ccc2c3n(c(=NC(=O)c4cnc(N)nc4)nc12)CCN3` came out at 15.3% [middle of 7 runs]

For record Cn1ncc(Cl)c1-c1cc(C(=O)NC(CN)Cc2cccc(F)c2)sc1Cl (configuration not stated) the listed viability, T/C is 66.9% [middle of 4 runs]

The recorded viability, T/C for entry `C[C@@H](NC(=O)c1ncnc(N)c1Cl)c1ncc(C(=O)Nc2cc(C(F)(F)F)c(Cl)cn2)s1` equals 104% [middle of 4 runs]

For reference, reported viability, T/C for `CNC(=O)c1ccc(N2C(=S)N(c3ccc(C#N)c(C(F)(F)F)c3)C(=O)C2(C)C)cc1F` stands at 105% [middle of 4 runs]

Please fill in: viability, T/C reported for Cc1nc(NC(=O)N2CCCC2C(N)=O)sc1-c1ccnc(C(C)(C)C(F)(F)F)c1 (configuration not stated) = 81% [middle of 8 runs]
